Data credit: paper PMC9967275

- Assayed System: TbrCatL (Trypanosoma brucei rhodesiense)
- Construct: Conor Caffrey (University of California San Diego)
- Sequence (Q95PM0 entry or part of it): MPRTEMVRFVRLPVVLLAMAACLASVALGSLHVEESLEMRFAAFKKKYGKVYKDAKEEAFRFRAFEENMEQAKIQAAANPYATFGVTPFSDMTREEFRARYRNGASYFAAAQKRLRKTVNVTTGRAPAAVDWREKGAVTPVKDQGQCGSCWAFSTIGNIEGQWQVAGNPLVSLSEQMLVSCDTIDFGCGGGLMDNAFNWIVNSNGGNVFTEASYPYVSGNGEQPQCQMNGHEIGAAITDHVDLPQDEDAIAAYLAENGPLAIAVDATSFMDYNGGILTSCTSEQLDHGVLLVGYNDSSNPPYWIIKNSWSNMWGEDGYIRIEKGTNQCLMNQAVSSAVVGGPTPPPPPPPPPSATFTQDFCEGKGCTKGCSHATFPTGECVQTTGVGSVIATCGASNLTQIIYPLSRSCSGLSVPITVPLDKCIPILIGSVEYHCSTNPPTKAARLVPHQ
- Measurement Protocol: TbrCatL enzymatic inhibition assay (cleavage of fluorogenic substrate Z-FR-AMC)
- Format: biochemical
- Experimental Context: read-out: Inhibition at 5 µM (Mean ± SEM %) TbrCatL 0′
Parameter Measured: inhibition at 5 µM (%)
Write the answer as a number in %, unit excluded.

Q: Param item = COc1ccc(C2=NN(C3CCCCCC3)C(=O)C2(C)C)cc1OCCCCOc1ccc(-c2nn[nH]n2)cc1 ; retrieve measured inhibition at 5 µM.
Ans: 49

Q: What about N#Cc1ccc(-c2cnc(N)c(-c3ccc(C(N)=O)cc3)n2)cc1 ?
Ans: 12

Q: What about COc1cc(C2=NCCN2)cc2cc(-c3ccc(C4=NCCN4)cc3)oc12 ?
Ans: 9

Q: What about O=C(NCCN1CCCC1)c1cc(NCCN2CCOCC2)nc2ccc(Cl)cc12 ?
Ans: 11

Q: What about CCn1cnc2c(Nc3cc(F)cc(F)c3)nc(C#N)nc21 [MMV676881, reference compound] ?
Ans: 100

Q: What about O=C(NCCN1CCCC1)c1cc(NCCCCN2CCC(F)(F)CC2)nc2ccc(Cl)cc12 ?
Ans: 31

Q: What about CN1CCN(S(=O)(=O)c2ccc(-c3ccc4c(Nc5ccc6nn[nH]c6c5)ccnc4c3)cc2)CC1 ?
Ans: 29

Q: What about CN1CCN(CCCOc2ncc(Nc3ncc(-c4ccc(C(F)(F)F)c(F)c4)nc3C(N)=O)cn2)CC1 ?
Ans: 11
